Origin of values: patent US12319676B2

Molecular target: human FXR (Homo sapiens)
Sequence (Q96RI1 262-486 limits assumed): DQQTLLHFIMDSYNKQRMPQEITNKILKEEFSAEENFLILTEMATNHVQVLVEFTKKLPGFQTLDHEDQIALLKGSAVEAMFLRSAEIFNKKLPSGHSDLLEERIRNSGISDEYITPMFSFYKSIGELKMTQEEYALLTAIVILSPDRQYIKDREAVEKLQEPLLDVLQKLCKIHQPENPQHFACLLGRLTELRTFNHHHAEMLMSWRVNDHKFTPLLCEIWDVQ
Test: transient human FXR/Gal4-luciferase reporter assay
Settings: Gal4-hFXR fusion construct, luciferase reporter in HEK293 cells; overnight incubation; response as percentage of 8 μM GW-4064 control
metric_name: EC50 (nM)
Give just the number in nM; leave the unit off.

A selection of reference data follows.
substance_smiles	EC50, nM
CC(C)(CO)CNC(=O)N(CC12CCC(c3noc(C(C)(C)F)n3)(CC1)CC2)c1cccc(C#N)c1	1000
CC(F)(F)c1nc(C23CCC(CN(C(=O)C4CCC(F)(F)CC4)c4cccc(S(=O)(=O)NC5CC5)c4)(CC2)CC3)no1	4000
O=C(N(CC12CCC(c3ccc(C(F)(F)F)cn3)(CC1)CC2)c1cccc(Nc2ncc(C3CC3)cn2)c1)C12CC(F)(C1)C2	292
COc1cccc(N(CC23CCC(c4nc(C5CC5)no4)(CC2)CC3)C(=O)C2CC(F)(F)C2)c1	673
CC(C)Oc1cccc(N(CC23CCC(c4noc(C(C)(F)F)n4)(CC2)CC3)C(=O)[C@H]2C[C@](O)(C(F)(F)F)C2)c1	610

q: Please list EC50 recorded for the compound O=C(N(CC12CCC(c3ccc(C(F)(F)F)cn3)(CC1)CC2)c1cccc(Nc2ccc(C3CC3)cn2)c1)C12CC(F)(C1)C2
a: 292

q: Please list EC50 recorded for the compound COC(=O)c1cccc(N(CC23CCC(c4noc(C(C)(F)F)n4)(CC2)CC3)C(=O)C23CC(F)(C2)C3)c1
a: 72
